- system.under.test: T1, soluble human FcRn (shFcRn) (human, UniProt P55899 24-297; P61769 21-119)
- T1 construct: Biotinylated for the ELISA, amine-coupled to a CM5 chip for SPR; also called biotinylated shFcRn
- method.notes: SPR pH 6
pKd: −log10 of the molar value. Numbered stars: 1 amine (or outer) side, 2 acyl side, 3 side chain; on linkers, the order of the positions; unused ones are H or OH. Bridge positions count the residues as written; N and C are the ends. Square brackets hold non-standard residues; d marks the D form. Ends that are not written are not given here. X2 = (3R)‑3‑amino‑1‑carboxymethyl‑valerolactam, O=C1[C@H](N[*:1])CCCN1CC(=O)[*:2]; X1 = 3‑amino‑2‑oxo‑1‑piperidine‑acetic acid, O=C1C(N[*:1])CCCN1CC(=O)[*:2]; NMeL = CN[C@@H](CC(C)C)C(=O)O; Pen = CC(C)(S)[C@H](N)C(=O)O; NMeA = CN[C@@H](C)C(=O)O
metric.name: pKd

Examples from the recorded data:
- binder: "RF[Pen]TGHF[X1]LYPC-NH2 (disulfide 3-12) [Peptide No. 179]"
  readout.number: 6.17
- binder: "RF[Pen][NMeA]GHF[X2][NMeL]YPC-NH2 (disulfide 3-12; N-terminus assumed; SMILES CC(C)C[C@H]1C(=O)N[C@@H](Cc2ccc(O)cc2)C(=O)N2CCC[C@H]2C(=O)N[C@H](C(N)=O)CSSC(C)(C)[C@H](NC(=O)[C@H](Cc2ccccc2)NC(=O)[C@@H](N)CCCNC(=N)N)C(=O)N(C)[C@@H](C)C(=O)NCC(=O)N[C@@H](Cc2c[nH]cn2)C(=O)N[C@@H](Cc2ccccc2)C(=O)N[C@@H]2CCCN(CC(=O)N1C)C2=O) [Peptide No. 228]"
  readout.number: 6.84
- binder: "RFCTGHFXLYPC (not fully specified; Pen 3; X 8 = 3(S)-2-amino-2-oxo-1-azepine acetic acid (so in the source) in place of Gly-Gly; disulfide 3-12; C-terminal amide) [Peptide No. 205]"
  readout.number: 6.99

1. RF[Pen]TGHF[X1]LYPC-NH2 (disulfide 3-12) [Peptide No. 178]
2. RFCTGHFXLYPC (not fully specified; Pen 3; X 8 = 3(S)-3-amino-2-oxo-1-pyrrolidine acetic acid in place of Gly-Gly; disulfide 3-12; C-terminal amide) [Peptide No. 214]
Higher pKd: 1 or 2 ? Response format: the label of the selected entry.
1
